# assayInfo: qHTS of pediatric cancer cell lines to identify multiple opportunities for drug repurposing: Primary screen for TC32 cells (AID 1347089); note: nearly all actives have a fitted effect of over 60% in size
# conditionDetails: TC32 Ewing sarcoma viability, CellTiter-Glo luminescence, 48 h; series mostly up to 45.8 µM
# Experimental: Drug repurposing or repositioning has been offered as a strategy for drug development in oncology programs. […] [1] Shen, M et al. Quantitative high-throughput phenotypic screening of pediatric cancer cell lines identifies multiple opportunities for drug repurposing. […] Cells were assayed in growth media at a density of 500-1,000 cells/well. […] After a 15min incubation at room temperature, samples were analyzed for luminescence intensity using a ViewLux High-throughput CCD imager equipped with clear filters.
Records with an inconclusive call do not appear. The source made the active and inactive calls. Calls come from the whole dose curve; as a rule, active = well fitted cell-killing curve with a large enough effect; inconclusive = small, poorly fitted or top-dose-only effect; inactive = flat fitted curve, though single readings scatter.
# output must be one of active, inactive

CCN(CC)CCNC(=O)c1ccc2nc(-c3ccccc3)c(-c3ccc(CN4CCC(n5c(=O)[nH]c6ccccc65)CC4)cc3)nc2c1 : active
Nc1ccccc1NC(=O)c1ccc(CNC(=O)OCc2cccnc2)cc1 : active

# fetch the recorded call for `CNC(=O)c1ccccc1Nc1nc(Nc2ccc(N3CCOCC3)cc2OC)ncc1Cl` here
active

Please indicate how the test categorized `COc1cc2c(NC3CCN(C(C)C)CC3)nc(C3CCCCC3)nc2cc1OCCCN1CCCC1` .
inactive

Look up the recorded call for `C[C@@H]1COC(Nc2ccc3ncnc(Nc4ccc(OCc5nccs5)c(Cl)c4)c3c2)=N1` in this test.
inactive

Would you mind telling me which call this test gave Cn1c2cc(S(C)=O)sc2c2cnn(Cc3cccc(N)c3)c(=O)c21 (stereo unspecified) ?
inactive
